# Tested on: MRSA KS2
# assay.procedure: MIC, broth microdilution, MRSA KS2
# Assay type: cell-based, Staphylococcus aureus
# particulars: Staphylococcus aureus MRSA KS2; read-out: MIC
Would you kindly list MIC for each of these compounds?
Give bare numbers, in µM.

Reference set, count: 2
CNC(CC(C)C)C(=O)NC1C(=O)NC(CC(N)=O)C(=O)NC2C(=O)NC3C(=O)NC(C(=O)NC(C(=O)NCCNC(=O)C=Cc4ccc(NS(=O)(=O)c5ccc(Cl)cc5)cc4)c4cc(O)cc(O)c4-c4cc3ccc4O)C(O)c3ccc(c(Cl)c3)Oc3cc2cc(c3OC2OC(CO)C(O)C(O)C2OC2CC(C)(N)C(O)C(C)O2)Oc2ccc(cc2Cl)C1O (stereo not drawn); 0.20
CNC(CC(C)C)C(=O)NC1C(=O)NC(CC(N)=O)C(=O)NC2C(=O)NC3C(=O)NC(C(=O)NC(C(=O)NCCCNC(=O)c4cc5ccccc5o4)c4cc(O)cc(O)c4-c4cc3ccc4O)C(O)c3ccc(c(Cl)c3)Oc3cc2cc(c3OC2OC(CO)C(O)C(O)C2OC2CC(C)(N)C(O)C(C)O2)Oc2ccc(cc2Cl)C1O (stereo not drawn); 0.39

With those in mind, consider the next compound.
Sample CNC(CC(C)C)C(=O)NC1C(=O)NC(CC(N)=O)C(=O)NC2C(=O)NC3C(=O)NC(C(=O)NC(C(=O)NCCNC(=O)C4c5ccccc5-c5ccccc54)c4cc(O)cc(O)c4-c4cc3ccc4O)C(O)c3ccc(c(Cl)c3)Oc3cc2cc(c3OC2OC(CO)C(O)C(O)C2OC2CC(C)(N)C(O)C(C)O2)Oc2ccc(cc2Cl)C1O (stereo not drawn) — what was its MIC?
0.39
